Cited source: PubChem BioAssay (NCI)

Tested on: NCI-H23 lung
experimental.details: NCI tumour cell line growth inhibition, 48 h; in the data active = GI50 below about 0.43 µM; inactive = the rest
Just give me one of these, please: active, inactive

input: What was the test verdict on O=C([O-])c1ccc(C(=O)[O-])cc1.O=C([O-])c1ccc(C(=O)[O-])cc1.[Mo+2].[Mo+2] ?
output: inactive

input: O=[N+]([O-])c1ccc2ncccc2c1Cl ?
output: inactive

input: Cc1nc(N)sc1C(=O)Nc1cc(C(=O)NCCCN(C)C)n(C)c1 ?
output: inactive

input: O=C(c1ccccc1)c1nc2ccc(C(F)(F)F)cc2[n+]([O-])c1C(F)(F)F ?
output: inactive

input: CC(=O)[O-].O=C([CH-]C(=O)c1ccccc1)c1ccccc1.O=C([CH-]C(=O)c1ccccc1)c1ccccc1.[Y+3] ?
output: inactive

input: O=C(Oc1ccccc1Cl)c1ccccc1Nc1ccnc(C(F)(F)F)c1 ?
output: active

input: CCN1C(=O)N(c2ccccc2)C2NN=c3s/c(=C4\C(=O)N(C(C)C)c5ccccc54)c(=O)n3C21 (stereo not drawn) ?
output: inactive

input: COc1cnc2c(c1)C(=O)c1c-2n(CCCN2CCCC2)c(=O)c2cc(F)ccc12 ?
output: active

====

Test system: MALME-3M melanoma
experimental.details: NCI tumour cell line growth inhibition, 48 h
readout.name: TGI

input: // lookup TGI for COc1ccc(-c2ccc(/C=N/n3c(C)nn(CN4CCN(C)CC4)c3=S)o2)c([N+](=O)[O-])c1
output: > 100 µM

input: CCc1c(Cc2cc(C)cc(C)c2)n2c(nc1=O)SCC2CBr (stereo not drawn) ?
output: > 50 µM

input: COC(=O)[C@@H]1C[C@@H]2c3ccccc3N(S(=O)(=O)c3ccccc3)[C@@H]2N1C(=O)OC ?
output: > 100 µM

====

Provide the recorded TGI for the entries that follow.
System: HCC-2998 colon
experimental.details: NCI tumour cell line growth inhibition, 48 h
Express the result in µM but write the number alone.

input: // lookup TGI for CCC[CH2][Sn]([CH2]CCC)([O]C(=O)C1CCC(=O)N1)[O]C(=O)C1CCC(=O)N1 (stereo not drawn)
output: 1.59

input: CNCCCNc1nc2ccccc2c2c(=O)c3cc(Cl)ccc3sc12 ?
output: 3.34

input: CCCCS(=O)(=O)Nc1ccc(Nc2c3ccccc3nc3ccccc23)c(OC)c1 ?
output: 16.7

input: COc1ccc(-c2c(-c3cc(OC)c4c(c3)OCO4)noc2N)cc1 ?
output: 18.3

====

Test system: K-562 leukemia
experimental.details: NCI tumour cell line growth inhibition, 48 h
Provide the recorded TGI for the entries that follow.

input: // lookup TGI for Cc1c2c(n(CCN(C)C)c1C)NN=C(C#N)S2(=O)=O
output: > 100 µM

input: COc1ccc(-c2cc(-c3cc(OC)c(OC)c(OC)c3)c(C#N)c(N3CCOCC3)n2)cc1O ?
output: > 24.1 µM

input: Cc1ccc(S(=O)(=O)NC(=O)Nc2ccc(S(N)(=O)=O)cc2S(N)(=O)=O)cc1 ?
output: > 100 µM

input: O=C(CC(=O)C1CCOC1=O)C(=O)Nc1ccc(Cl)cc1Cl (configuration not stated) ?
output: > 100 µM

input: N#CCCN(CCN(C(=O)Nc1ccccc1)c1ccccc1)C(=O)Nc1ccccc1 ?
output: > 92.1 µM

input: COc1cc2cc(C(=O)N3CC(CCl)c4ccccc43)[nH]c2c(OC)c1OC (configuration not stated) ?
output: > 41.3 µM

input: Nc1c(C(=O)Nc2ccccc2F)sc2nc3c(cc12)C(=O)CCC3 ?
output: > 100 µM
